Attribution: patent US20250152704A1

Molecular target: T1, cynomolgus monkey FcRn (cynomolgus monkey, UniProt Q8SPV9 24-297; Q8SPW0 21-119, limits assumed)
T1 construct: also called cynoFcRn
Assay: SPR, pH 7.4
Measured parameter: pKd
Keep in mind that pKd stands for -log10 of concentration in molar terms.

Name the recorded pKd for Fc Fragment 10 (other, Human IgG1 Fc fragment; substitutions already in the entry) DKTHTCPPCPAPELLGGPSVFLFPPKPKDTLYITREPEVTCVVVDVSHEDPEVKFNWYVDGVEVHNAKTKPREEQYNSTYRVVSVLTVLHQDWLNGKEYKCKVSNKALPAPIEKTISKAKGQPREPQVYTLPPSRDELTKNQVSLTCLVKGFYPSDIAVEWESNGQPENNYKTTPPVLDSDGSFFLYSKLTVDKSRWQQGNVFSCSVLHEALKYHYTQKSLSLSPG .
6.14

Would you mind doing Fc Fragment 15 (other, Human IgG1 Fc fragment; substitutions already in the entry) DKTHTCPPCPAPELLGGPSVFLFPPKPKDTLYITREPEVTCVVVDVSHEDPEVKFNWYVDGVEVHNAKTKPREEQYNSTYRVVSVLTVDHQDWLNGKEYKCKVSNKALPAPIEKTISKAKGQPREPQVYTLPPSRDELTKNQVSLTCLVKGFYPSDIAVEWESNGQPENNYKTTPPVLDSDGSFFLYSKLTVDKSRWQQGNVFSCSVMHEALKFHYTQKSLSLSPG as well?
5.84
